- System: M14 melanoma
- assay_procedure: NCI tumour cell line growth inhibition, 48 h
Field: TGI. Provide a value for each of the compounds that follow.

COc1ccc([C@@]23Oc4cc(OC)cc(OC)c4[C@]2(O)[C@H](O)[C@H](C(=O)N(C)C)[C@H]3c2ccccc2)cc1: 0.014 µM
C/C(=C/CCC(C)[C@@H]1CC[C@]2(C)C3=C(CC[C@@]12C)[C@@]1(C)CCC(=O)C(C)(C)[C@@H]1CC3)C(=O)O (some centres undefined): 2.64 µM
NC(=O)CSc1nc2ccccc2c(=O)n1N: > 100 µM
CC(C)(C)O/N=C/c1cc(NC(=S)c2ccccc2)ccc1Cl: 54.1 µM
CCOC(=O)C(Cc1ccc(N=NN(C)C)cc1)NC(=O)CC1c2ccccc2-c2ccccc21 (centres undefined): > 100 µM

Hello, I would appreciate it if you could give TGI for each entry below.
1. O=C(Nc1cccc2ccccc12)c1cc2ccccc2oc1=O
2. COc1cc([C@@H]2c3cc4c(cc3[C@H](SC(=N)N)[C@H]3COC(=O)[C@H]23)OCO4)cc(OC)c1OC
3. BrC1(c2ccccc2)C[n+]2c(-c3ccccc3)cc(-c3ccccc3)cc2-c2ccccc21 (centres undefined)
4. O=C([O-])c1ccc([I+]c2ccccc2)cc1

**A:**
["> 100 µM", "> 100 µM", "15.5 µM", "> 100 µM"]

Value source: PubChem BioAssay (NCI)
